Every entry's value here was drawn from paper PMC12014896.

biological target: SARS-CoV-2 spike RBD (Wuhan-Hu-1) (Severe acute respiratory syndrome …, UniProt P0DTC2); experiment: SPR
Property Label: pKd
Friendly reminder that pKd comes from taking -log10 of the concentration in mol/L.

get_value(item= COVIC-299 (antibody, V domains shown) VH: EVQLVESGGGLVQPGGSLRLSCAASGLIVSRNYMSWVRQAPGKGLEWVSVIYSGGSTFYADSVKGRFTISRDNSKNTLYLQMNSLRAEDTAVYYCARDLNIAGGFDIWGQGTMVTVSS VL: DIQLTQSPSFLSASVGDRVTITCRASQGISSYLAWYQQKPGKAPKLLIYAASTLQSGVPSRFSGSGSGTDFTLTISSLQPEDFATYYCQHLNIDPITFGQGTRLEIK , readout=pKd) returns 9.48

Form: binder = COVIC-252 (antibody, V domains shown) VH: EVQLLESGGGLIQPGGSLRLSCAASGFIVSSNYMSWVRQAPGKGLEWVSVIYSGGSTFYADSVKGRFTISRDNSNNTLYLQMNSLRAEDTAVYYCARDYGDFYFDYWGQGTLVTVSS VL: DIQMTQSPSTLSVSPGERATLSCRASQSVSSNLAWYQQKPGQAPRLLIYGASTRATGIPVRFSGSGSGTESTLTISSLQSEDFAVYYCQQYNKWPRTFGQGTKVEIK ; pKd = 7.82

Value of measured pKd for the entry COVIC-262 (antibody, V domains shown) VH: QVQLVQSGAEVKKPGSSVKVSCKASGGTSSSYAISWVRQAPGQGLEWIGGIIPIFDTTKYAQKFQGRVTITADESTNTAYMEVSSLRSEDTAVYYCAKVADRVGASTGELDYWGQGTLVTVSS VL: EVVLTQSPATLSLSPGERGTLSCRASQSISNYLAWYQQKPGQAPRLLIYNASNRATGVPARFSGSGSGTDFTLTISSLEPEDFAVYYCQQRSNWPPWTFGQGTKVEIKR : 8.33

The binder listed as COVIC-249 (antibody, V domains shown) VH: QVQLVQPGGGVIQPGRSLRLSCTASGFTFSSYPMHWVRQAPGKGLEWVAVISYDGDNKYYADSVKGRFTISRDNSKNTLYLQMNSLKSDDTAMYYCARDYVVVILSDSFYYGMDVWGQGTTVTVSS VL: QSALTQPRSVSGSPGQSVTISCTGTSSDVGGYNYVSWYQQYPGKAPKLMIYDVSKRPSGVPDRFSGSKSGNTASLTISGLQGEDEADYYCCSYAGSYTYVFGTGTKVTVL has a reported pKd of 8.01

Field pKd (entry COVIC-296 (antibody, V domains shown) VH: EVQLVESGGGLVQPGGSLRLSCAASGITVSSNYMNWVRQAPGKGLEWVSVIYSGGSTFYADSVKGRFTVSRHNSKNTLYLQMNSLRVEDTAVYYCAREGLVGTALAFDYWGQGNLVTVSS VL: DIQMTQSPSSLSASVGDRVTITCRASQSINNYLNWYQQKPGKAPNLLIYAASSLQSGVPSRFSGSGSGTDFTLTINSLQPEDFATYYCQQSYSTPPYTFGQGTKLEIK ) reads 9.30
